src = patent US20240252641A1

Biological target: T1, CD70 (UniProt P32970 39-193, limits assumed)
T1 construct: also called CD70 (100 nM)
T1 sequence (looked up): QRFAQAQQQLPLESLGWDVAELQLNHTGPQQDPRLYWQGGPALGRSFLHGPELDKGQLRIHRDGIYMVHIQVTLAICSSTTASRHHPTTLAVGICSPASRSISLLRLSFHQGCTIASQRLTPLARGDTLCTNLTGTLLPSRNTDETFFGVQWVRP
Test: Octet (BLI); hybridoma mAb, CD70 at 100 nM
observationType: koff

Q: Look at this binder and give its reported koff. 9A11 (9A11E8) (antibody, V domains shown, IgG in hybridoma supernatant) VH: QVQLVESGGGVVQPGRSLRLSCAASGFTFSNYGMYWVRQAPGKGLEWVAVIWYDGSKKYYGDSVKGRFTISRDNSKNTLYLQMNSLRAEDTAVYYCARDEDTVMASFDYWGQGTLVTVSS VL: DIQLTQSPSFLSASVGDRVTITCRASQDISIYLAWYQQKPGKAPQLLIYAASTLQSGVPSRFSGSGSGTEFTLTISSLQPEDFATYSCQQLNSYPITFGGGTKVEIK
Ans: 3.36e-07 s⁻¹

Q: Look at this binder and give its reported koff. 9A1 (9A1H6) (antibody, V domains shown, IgG in hybridoma supernatant) VH: QVQLVQSGAEVKKPGASVKVSCKASGYSFTGYYMHWVRQAPGQGLEWMGWINPKSGGTSYAQQFQGRVTMTRDTSMSTVYMELTRLRADDTAVYYCARLYYSGWYGDYWGQGTLVTVSS VL: DIQMTQSPSSLSASVGDRVTITCQASQDINNYLNWYQQKPGKVPNLLIYDASNLETGVPSRFSGSGSGTDFTFTISSLQPEDIATYYCQQYNNPPITFGQGTRLEIK
Ans: 5.28e-07 s⁻¹

Q: Look at this binder and give its reported koff. 13G6 (antibody, V domains shown, IgG in hybridoma supernatant; also called 13G6E8) VH: QVQLVESGGGVVQPGKSLRLSCAASGFTFSNYGIHWVRQAPGKGLEWVAVIWYDGSYKYYADSVKGRFTISRDNSKNTLYLQMNSLRAEDTALYYCARDTVDTYGSFDYWGQGTLVTVSS VL: DIQLTQSPSFLSASVGDRVTITGRASQGISSYLAWYQQKPGKAPNLLIYAASTLQSGVPSRFSGSGSGTEFTLTISSLQPEDFATYYCQQHNRYPITFGQGTRLEIK
Ans: 3.3e-07 s⁻¹

Q: Look at this binder and give its reported koff. 1E3 (1E3D9) (antibody, V domains shown, IgG in hybridoma supernatant) VH: QLQLQESGPGLVKPSETLSLTCTVSGASITSTSYYWNWIRQPPGKGLEWIGRISYSGSTYYNPSLKSRVTISVDTSKNQFSLKLSSVTATDTAVYYCARQIRYNWNPDTFDIWGQGTMVTVSS VL: EIVMTQSPATLSVSPGERATLSCRASQSLNSNLAWYQQKPAQAPRLLIYGASTRATGIPARFSGSGSGTEFTLTISSLQSEDFAVYYCQQYDNWPLTFGGGTKVEIK
Ans: 3.88e-05 s⁻¹
